Assignment: determine reported log10 of Ki for the given molecules.
Biological target: Gonadotropin-releasing hormone receptor (Homo sapiens)
Sequence (P30968 whole entry): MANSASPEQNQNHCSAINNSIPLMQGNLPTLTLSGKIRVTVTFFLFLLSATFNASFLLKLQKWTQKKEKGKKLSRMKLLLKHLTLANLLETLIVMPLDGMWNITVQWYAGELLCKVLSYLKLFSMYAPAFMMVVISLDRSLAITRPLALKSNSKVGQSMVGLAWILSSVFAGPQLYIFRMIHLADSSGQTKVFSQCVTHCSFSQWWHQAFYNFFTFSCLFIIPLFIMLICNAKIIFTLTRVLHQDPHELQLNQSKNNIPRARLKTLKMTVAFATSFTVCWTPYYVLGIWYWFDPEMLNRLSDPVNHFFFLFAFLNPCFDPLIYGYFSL
Assay: Binding affinity against human GnRH receptor expressed in HEK293 cells using des-Gly10[125I]Tyr5, D-Leu, NMeLeu, Pro-NEt GnRH as radioligand.
Format: cell-based
Could you please treat all values as log10 of Ki in µM?

| structure-notation | log10 of Ki |
| --- | --- |
| CCOC(=O)c1cn(Cc2cc(F)ccc2F)c2c(C#N)c(-c3ccc(OCC(C)C)cc3)c(CN(C)CCc3ccccn3)n2c1=O | 0.08 |
| CCOC(=O)c1cn(Cc2ccccc2OC)c2c(C#N)c(-c3ccc(OC)cc3)c(CN(C)CCc3ccccn3)n2c1=O | 0.82 |
| COc1ccc(-c2c(C#N)c3n(Cc4ccccc4F)cc(C(=O)OC(C4CC4)C4CC4)c(=O)n3c2CN(C)CCc2ccccn2)cc1 | 0.40 |
| CCOC(=O)c1cn(Cc2ccccc2)c2c(C#N)c(-c3ccc(OC)cc3)c(CN(C)CCc3ccccn3)n2c1=O | 0.41 |
| CCC(CC)OC(=O)c1cn(Cc2ccccc2F)c2c(C#N)c(-c3ccc(OC)cc3)c(CN(C)CCc3ccccn3)n2c1=O | -0.74 |

I need log10 of Ki for every entry listed below, if you could help.
1. CCOC(=O)c1cn(Cc2ccc(F)cc2F)c2c(C#N)c(-c3ccc(OC)cc3)c(CN(C)CCc3ccccn3)n2c1=O
2. COc1ccc(-c2c(C#N)c3n(Cc4ccccc4F)cc(C(=O)OC4CCCC4)c(=O)n3c2CN(C)CCc2ccccn2)cc1
3. COc1ccc(-c2c(C#N)c3n(Cc4ccccc4F)cc(C(=O)OC(C)C)c(=O)n3c2CN(C)CCc2ccccn2)cc1
4. CCOC(=O)c1cn(Cc2ccccc2F)c2c(C#N)c(-c3ccc(OC)cc3)c(CN(C)CCc3ccccn3)n2c1=O
5. CCOC(=O)c1cn(Cc2ccccc2F)c2c(C#N)c(-c3ccc(OC)cc3)c(CN(C)Cc3ccccc3)n2c1=O
6. CCC(CC)OC(=O)c1cn(Cc2ccccc2F)c2c(C#N)c(-c3ccc(OCC(C)C)cc3)c(CN(C)CCc3ccccn3)n2c1=O

[0.57, -0.59, -0.40, -0.30, 0.26, -1.60]
